# experimental-details: in vivo
# reported-conditions: rat, ip, 30 mg/kg
attribute-measured: Kp

INSERT INTO assay_data (compound, numeric_readout) VALUES
  ('CC1(C)CCC(NC(=O)[C@@H](N)CCC(=O)O)CC1 [Compound 1]', 0.48);

###

# experimental-details: in vivo
# reported-conditions: rat, 30 mg/kg
attribute-measured: Tmax

INSERT INTO assay_data (smiles_entry, attribute_measured, result) VALUES
  ('CC1(C)CCC(NC(=O)[C@@H](N)CCC(=O)O)CC1', 'Tmax', '1 h');

###

# target-under-test: NMDAR (subtype NR1/NR2A) (Homo sapiens, UniProt Q05586+Q12879)
# Construct: expressed in transfected cells
# Sequence (Q12879 23-1464, other chains not shown): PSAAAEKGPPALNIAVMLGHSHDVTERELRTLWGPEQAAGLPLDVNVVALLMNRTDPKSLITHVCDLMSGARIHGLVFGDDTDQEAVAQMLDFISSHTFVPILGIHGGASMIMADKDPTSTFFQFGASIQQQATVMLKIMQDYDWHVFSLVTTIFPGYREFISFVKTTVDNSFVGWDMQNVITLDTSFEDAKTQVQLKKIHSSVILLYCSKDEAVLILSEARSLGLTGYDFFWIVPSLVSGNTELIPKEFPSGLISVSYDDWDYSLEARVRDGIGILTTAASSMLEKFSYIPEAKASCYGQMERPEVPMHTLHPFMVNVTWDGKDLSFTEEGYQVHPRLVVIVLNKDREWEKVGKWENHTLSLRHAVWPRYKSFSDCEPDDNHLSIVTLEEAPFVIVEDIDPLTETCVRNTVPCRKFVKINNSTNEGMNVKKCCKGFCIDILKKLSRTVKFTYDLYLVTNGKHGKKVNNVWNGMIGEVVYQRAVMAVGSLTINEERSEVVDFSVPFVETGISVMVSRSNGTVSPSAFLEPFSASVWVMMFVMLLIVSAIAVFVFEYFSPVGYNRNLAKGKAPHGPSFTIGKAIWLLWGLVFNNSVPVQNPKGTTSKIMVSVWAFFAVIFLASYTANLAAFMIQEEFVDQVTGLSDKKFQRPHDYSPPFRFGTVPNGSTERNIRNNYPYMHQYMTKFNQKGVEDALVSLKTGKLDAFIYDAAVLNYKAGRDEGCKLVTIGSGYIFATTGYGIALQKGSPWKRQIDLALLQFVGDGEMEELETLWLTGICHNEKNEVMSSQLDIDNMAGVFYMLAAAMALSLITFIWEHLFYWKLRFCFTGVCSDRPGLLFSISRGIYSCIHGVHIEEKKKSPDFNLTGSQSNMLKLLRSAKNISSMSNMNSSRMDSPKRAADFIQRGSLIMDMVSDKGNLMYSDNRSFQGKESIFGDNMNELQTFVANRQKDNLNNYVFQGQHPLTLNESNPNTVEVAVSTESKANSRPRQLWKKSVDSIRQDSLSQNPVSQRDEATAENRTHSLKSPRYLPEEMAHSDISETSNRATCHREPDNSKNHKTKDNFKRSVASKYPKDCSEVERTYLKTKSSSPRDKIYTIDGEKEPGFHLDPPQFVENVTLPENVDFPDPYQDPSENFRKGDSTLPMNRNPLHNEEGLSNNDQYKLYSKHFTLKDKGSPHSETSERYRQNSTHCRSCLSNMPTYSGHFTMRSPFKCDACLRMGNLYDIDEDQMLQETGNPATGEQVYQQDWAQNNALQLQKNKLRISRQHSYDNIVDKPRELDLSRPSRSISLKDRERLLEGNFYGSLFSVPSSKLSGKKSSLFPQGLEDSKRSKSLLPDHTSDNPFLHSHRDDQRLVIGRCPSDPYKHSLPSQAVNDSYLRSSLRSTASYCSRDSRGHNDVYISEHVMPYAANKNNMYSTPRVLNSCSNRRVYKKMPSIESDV
# experimental-details: Glutamate-evoked currents in NMDA receptor-transfected oocytes
# Assay type: cell-based
# reported-conditions: -60 millivolts; glutamate 10uM, 100uM glycine; read-out: IC50, inhibition of glutamate-stimulated Ca current
attribute-measured: IC50 (µM)

INSERT INTO results (smiles_entry, target_under_test, attribute_measured, numeric_readout) VALUES
  ('CC1(C)CCC(N)CC1', 'NMDAR (subtype NR1/NR2A) (Homo sapiens, UniProt Q05586+Q12879)', 'IC50', 117);

###

# target-under-test: NMDAR (subtype NR1/NR2A) (Homo sapiens, UniProt Q05586+Q12879)
# Construct: expressed in transfected cells
# experimental-details: Glutamate-evoked currents in NMDA receptor-transfected oocytes
# Assay type: cell-based
# reported-conditions: 100 millivolts; glutamate 10uM, 100uM glycine; read-out: IC50, inhibition of glutamate-stimulated Ca current
attribute-measured: IC50

INSERT INTO results (compound, result) VALUES
  ('CC1(C)CCC(N)CC1 [Compound 2, 4,4-dimethyl-cyclohexylamine]', '30 µM');
